Tested on: Escherichia coli TOP10
Protocol notes: shrunken log2 fold change of peptide-encoding DNA abundance (4.5 h post-induction vs induction); higher = less antimicrobial activity (less host growth inhibition)
Stated conditions: time post-induction: 4.5 h; library: site-saturation at positions 5, 18, 19, 20
Can you tell me shrunken log2 fold change for the items I'm about to list?
Answers are plain numbers.

In the examples that follow, each entry is paired with its recorded shrunken log2 fold change.
| Chain sequence | shrunken log2 fold change |
| --- | --- |
| RRIRSRPPRLPRPRPRPEYHPRP | -0.282 |
| RRIRERPPRLPRPRPRPEDFPRP | 0.089 |
| RRIRHRPPRLPRPRPRPLSFPRP | -0.137 |
| RRIRWRPPRLPRPRPRPSQGPRP | 0.27 |
| RRIRIRPPRLPRPRPRPKAVPRP | -0.00677 |
| RRIRKRPPRLPRPRPRPNHRPRP | -0.334 |
| RRIRQRPPRLPRPRPRPDFQPRP | -0.0253 |
| RRIRVRPPRLPRPRPRPRLSPRP | 0.0321 |
| RRIRTRPPRLPRPRPRPACKPRP | 0.172 |
| RRIRGRPPRLPRPRPRPWCFPRP | 0.212 |

Items follow; give shrunken log2 fold change for each.
1. RRIRNRPPRLPRPRPRPWAYPRP
2. RRIRNRPPRLPRPRPRPSAMPRP
3. RRIRDRPPRLPRPRPRPLWPPRP

[-0.0322, -0.188, 0.662]

Items follow; give shrunken log2 fold change for each.
1. RRIRWRPPRLPRPRPRPDCIPRP
2. RRIRRRPPRLPRPRPRPQQMPRP

0.0529
0.12

Items follow; give shrunken log2 fold change for each.
1. RRIRDRPPRLPRPRPRPSHPPRP
2. RRIRLRPPRLPRPRPRPSWEPRP

-0.425
0.0244

Items follow; give shrunken log2 fold change for each.
1. RRIRDRPPRLPRPRPRPNGCPRP
2. RRIRGRPPRLPRPRPRPAKWPRP
3. RRIRQRPPRLPRPRPRPYHPPRP
4. RRIRGRPPRLPRPRPRPCGYPRP
5. RRIRCRPPRLPRPRPRPMFSPRP
6. RRIRWRPPRLPRPRPRPDCQPRP

1. -0.00152
2. 0.747
3. -0.531
4. 0.216
5. -0.48
6. -0.00822

Items follow; give shrunken log2 fold change for each.
1. RRIRSRPPRLPRPRPRPTERPRP
2. RRIRIRPPRLPRPRPRPNECPRP
3. RRIRIRPPRLPRPRPRPFRHPRP
4. RRIRMRPPRLPRPRPRPNIMPRP
5. RRIRVRPPRLPRPRPRPWSPPRP
6. RRIRTRPPRLPRPRPRPGIGPRP
7. RRIRPRPPRLPRPRPRPNAVPRP

1. 0.142
2. -0.0258
3. -0.219
4. -0.466
5. -0.00502
6. 0.17
7. 0.0397

Items follow; give shrunken log2 fold change for each.
1. RRIRIRPPRLPRPRPRPWMGPRP
2. RRIRWRPPRLPRPRPRPLFEPRP

-0.185
0.25

---

Test system: Escherichia coli TOP10
Protocol notes: shrunken log2 fold change of peptide-encoding DNA abundance (4.5 h post-induction vs induction); higher = less antimicrobial activity (less host growth inhibition)
Stated conditions: time post-induction: 4.5 h; library: site-saturation at positions 5, 18, 19, 20
Can you tell me shrunken log2 fold change for the items I'm about to list?
Give bare numbers.

In the examples that follow, each entry is paired with its recorded shrunken log2 fold change.
| Chain sequence | shrunken log2 fold change |
| --- | --- |
| RRIRRRPPRLPRPRPRPMWKPRP | -0.0119 |
| RRIRARPPRLPRPRPRPCFDPRP | 0.191 |
| RRIRTRPPRLPRPRPRPNVVPRP | -0.0363 |

Items follow; give shrunken log2 fold change for each.
1. RRIRMRPPRLPRPRPRPNMVPRP
2. RRIRIRPPRLPRPRPRPFLGPRP

1. -0.147
2. 0.00585

Items follow; give shrunken log2 fold change for each.
1. RRIRGRPPRLPRPRPRPFDWPRP
2. RRIRARPPRLPRPRPRPDFVPRP
3. RRIRWRPPRLPRPRPRPMNTPRP

[0.0459, 0.205, -0.28]

---

Test system: Escherichia coli TOP10
Protocol notes: shrunken log2 fold change of peptide-encoding DNA abundance (4.5 h post-induction vs induction); higher = less antimicrobial activity (less host growth inhibition)
Stated conditions: time post-induction: 4.5 h; library: site-saturation at positions 5, 18, 19, 20
Given measured shrunken log2 fold change, output label 1 if it is greater than or equal to -0.2 and label 0 if not.

Would you please look over these solved cases?
| Chain sequence | Group |
| --- | --- |
| RRIRWRPPRLPRPRPRPWLCPRP | label 1 |
| RRIRIRPPRLPRPRPRPHINPRP | label 0 |
| RRIRERPPRLPRPRPRPAVEPRP | label 1 |
| RRIRTRPPRLPRPRPRPKCVPRP | label 1 |
| RRIRARPPRLPRPRPRPNVQPRP | label 1 |

State whether the measured shrunken log2 fold change reaches -0.2, counting equality as reaching it, for RRIRARPPRLPRPRPRPGTYPRP label 0

What do you have for RRIRHRPPRLPRPRPRPTMEPRP ? label 1

What do you have for RRIRWRPPRLPRPRPRPFKCPRP ? label 1

---

Can you tell me shrunken log2 fold change for the items I'm about to list?
Test system: Escherichia coli TOP10
Protocol notes: shrunken log2 fold change of peptide-encoding DNA abundance (4.5 h post-induction vs induction); higher = less antimicrobial activity (less host growth inhibition)
Stated conditions: time post-induction: 4.5 h; library: site-saturation at positions 5, 18, 19, 20
Give bare numbers.

| Chain sequence | Parameter | Obs value |
| --- | --- | --- |
| RRIRCRPPRLPRPRPRPKEGPRP | shrunken log2 fold change | 0.201 |
| RRIRPRPPRLPRPRPRPYTGPRP | shrunken log2 fold change | -0.6 |
| RRIRMRPPRLPRPRPRPKWGPRP | shrunken log2 fold change | 0.729 |
| RRIRNRPPRLPRPRPRPKWKPRP | shrunken log2 fold change | 0.0263 |
| RRIRHRPPRLPRPRPRPYVMPRP | shrunken log2 fold change | 0.0288 |
| RRIRLRPPRLPRPRPRPPTDPRP | shrunken log2 fold change | 0.127 |

Items follow; give shrunken log2 fold change for each.
1. RRIRDRPPRLPRPRPRPNAEPRP
2. RRIRARPPRLPRPRPRPKWHPRP
3. RRIRHRPPRLPRPRPRPDMWPRP
4. RRIRERPPRLPRPRPRPWEYPRP
5. RRIRRRPPRLPRPRPRPQKSPRP
6. RRIRHRPPRLPRPRPRPNYAPRP

1. 0.359
2. 0.235
3. -0.175
4. 0.0155
5. -0.106
6. 0.0414

Items follow; give shrunken log2 fold change for each.
1. RRIRPRPPRLPRPRPRPDRNPRP
2. RRIRMRPPRLPRPRPRPYWIPRP
3. RRIRTRPPRLPRPRPRPMHSPRP

1. -0.0925
2. -0.157
3. 0.02

---

Test system: Escherichia coli TOP10
Protocol notes: shrunken log2 fold change of peptide-encoding DNA abundance (4.5 h post-induction vs induction); higher = less antimicrobial activity (less host growth inhibition)
Stated conditions: time post-induction: 4.5 h; library: site-saturation at positions 5, 18, 19, 20
Can you tell me shrunken log2 fold change for the items I'm about to list?

Items follow; give shrunken log2 fold change for each.
1. RRIRHRPPRLPRPRPRPCCAPRP
2. RRIRPRPPRLPRPRPRPARSPRP
3. RRIRTRPPRLPRPRPRPYCHPRP
4. RRIRFRPPRLPRPRPRPDNWPRP
5. RRIRDRPPRLPRPRPRPGSQPRP

-0.0125
0.315
-0.213
-0.25
0.0966

---

Test system: Escherichia coli TOP10;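 note: peptides expressed intracellularly from a pBAD plasmid library in pooled LB shake-flask culture, induced with 0.3% L-arabinose, DNA abundance read by NGS, three biological replicates, DESeq2 with apeglm shrinkage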
Protocol notes: shrunken log2 fold change of peptide-encoding DNA abundance (4.5 h post-induction vs induction); higher = less antimicrobial activity (less host growth inhibition)
Stated conditions: time post-induction: 4.5 h; library: site-saturation at positions 5, 18, 19, 20
Given measured shrunken log2 fold change, output yes if it is greater than or equal to 0.08 and no if not.

| Chain sequence | Group |
| --- | --- |
| RRIRIRPPRLPRPRPRPNNSPRP | no |
| RRIRYRPPRLPRPRPRPTHFPRP | yes |
| RRIRMRPPRLPRPRPRPARHPRP | yes |
| RRIRVRPPRLPRPRPRPPFVPRP | no |
| RRIRERPPRLPRPRPRPVCLPRP | no |

State whether the measured shrunken log2 fold change reaches 0.08, counting equality as reaching it, for RRIRSRPPRLPRPRPRPDNTPRP no

What do you have for RRIRSRPPRLPRPRPRPCSYPRP ? no

The reported numbers originate from the supplement of paper PMC9112550.
